# SYSTEM TESTED: T1, human TREM2 (human, UniProt Q9NZC2 19-174, limits assumed)
# T1 construct: also called triggering receptor expressed on myeloid cells 2
# T1 sequence: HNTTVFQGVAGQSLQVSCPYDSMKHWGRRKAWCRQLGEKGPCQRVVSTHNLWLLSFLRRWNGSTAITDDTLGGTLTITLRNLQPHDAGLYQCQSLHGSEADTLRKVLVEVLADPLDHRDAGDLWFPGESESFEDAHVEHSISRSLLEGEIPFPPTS
# ASSAY: 1st screen (110 nM or 10 nM)
Entries and their Binding Signal (fold over 6E7 Parental antibody) values follow.
Number in fold, nothing else.

Recorded results for 2 binders are shown here.
{"BINDER": "V15 (antibody, V domains shown) VH: EVQLVQSGAEVKKPGESLKISCKGSGYSFASYWIAWVRQMPGKGLEWMGTIYPGDSDTRYSPSFQGQVTISADKSISTAYLQWSSLKASDTAMYFCARSRTFYYDSSDYFDYWGQGTLVTVSS VL: DIQMTQSPSSVSASVGDRVTITCRASQGISSWLAWYQQKPGKAPKLLIYAASWLQNGVPSRFSGSGSGTDFTLTISSLQPEDFATYFCQQADSYPRTFGQGTKLEIK", "ENDPOINT VALUE": 5.23}
{"BINDER": "V83 (antibody, V domains shown) VH: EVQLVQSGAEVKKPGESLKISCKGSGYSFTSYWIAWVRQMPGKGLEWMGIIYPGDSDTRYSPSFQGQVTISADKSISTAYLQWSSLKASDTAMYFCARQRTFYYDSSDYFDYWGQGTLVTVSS VL: DIQMTQSPSSVSASVGDRVTITCRASQGISSWLAWYQQKPGKAPKLLIYAASSLQNGVPSRFSGSGSGTDFTLTISSLQPEDFATYFCQQAVSFPRTFGQGTKLEIK", "ENDPOINT VALUE": 0.2}

Param item = V76 (antibody, V domains shown) VH: EVQLVQSGAEVKKPGESLKISCKGSGYSFGSYWIAWVRQMPGKGLEWMGIIYPGDSDTRYSPEFQGQVTISADKSISTAYLQWSSLKASDTAMYFCARQRTFYYDSSDYSDYWGQGTLVTVSS VL: DIQMTQSPSSVSASVGDRVTITCRASQGISSWLAWYQQKPGKAPKLLIYAASSLQKGVPSRFSGSGSGRDFTLTISSLQPEDFATYFCQQADSFPRTFGQGTKLEIK ; retrieve measured Binding Signal (fold over 6E7 Parental antibody).
4.57
